Parameter: kd (1/s) cyBCMA @37° C.. Scope: all listed entries.
# test-system: cyBCMA
# test-description: Kinetics and affinity of cyBCMA/human IgG interactions by SPR (Bio-Rad Proteon XPR36)
# Type: binding, cynomolgus
# measurement-setup: 37° C.
Form entry: value (s⁻¹) — number only.

1) L3.PY/L3.KY/H2.DY: anti-BCMA antibody (antibody, V domains shown) VH: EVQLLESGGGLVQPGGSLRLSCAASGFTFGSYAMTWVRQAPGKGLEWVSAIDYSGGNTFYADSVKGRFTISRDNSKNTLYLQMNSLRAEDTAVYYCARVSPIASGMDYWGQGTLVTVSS VL: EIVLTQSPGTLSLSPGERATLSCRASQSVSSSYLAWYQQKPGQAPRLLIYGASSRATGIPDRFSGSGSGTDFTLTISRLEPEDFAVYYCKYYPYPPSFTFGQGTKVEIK; 0.00243

// below: kd (1/s) cyBCMA @37° C. requested for another molecule
Please report the recorded kd (1/s) cyBCMA @37° C. for L3.PY/L1.PS/H3.YA: anti-BCMA antibody (antibody, V domains shown) VH: EVQLLESGGGLVQPGGSLRLSCAASGFTFGSYAMTWVRQAPGKGLEWVSAISGSGGNTFYADSVKGRFTISRDNSKNTLYLQMNSLRAEDTAVYYCARVSPIYAGMDYWGQGTLVTVSS VL: EIVLTQSPGTLSLSPGERATLSCRASQSVSSSYPSWYQQKPGQAPRLLIYGASSRATGIPDRFSGSGSGTDFTLTISRLEPEDFAVYYCQHYPYPPSFTFGQGTKVEIK .
0.00998

Origin of values: patent US11814435B2
